systemName: rat mGlu2 SNAP-tagged receptor (rat, UniProt P31421 19-872, SNAP tag labelled with SNAP-Lumi4-Tb)
Sequence (P31421 19-872): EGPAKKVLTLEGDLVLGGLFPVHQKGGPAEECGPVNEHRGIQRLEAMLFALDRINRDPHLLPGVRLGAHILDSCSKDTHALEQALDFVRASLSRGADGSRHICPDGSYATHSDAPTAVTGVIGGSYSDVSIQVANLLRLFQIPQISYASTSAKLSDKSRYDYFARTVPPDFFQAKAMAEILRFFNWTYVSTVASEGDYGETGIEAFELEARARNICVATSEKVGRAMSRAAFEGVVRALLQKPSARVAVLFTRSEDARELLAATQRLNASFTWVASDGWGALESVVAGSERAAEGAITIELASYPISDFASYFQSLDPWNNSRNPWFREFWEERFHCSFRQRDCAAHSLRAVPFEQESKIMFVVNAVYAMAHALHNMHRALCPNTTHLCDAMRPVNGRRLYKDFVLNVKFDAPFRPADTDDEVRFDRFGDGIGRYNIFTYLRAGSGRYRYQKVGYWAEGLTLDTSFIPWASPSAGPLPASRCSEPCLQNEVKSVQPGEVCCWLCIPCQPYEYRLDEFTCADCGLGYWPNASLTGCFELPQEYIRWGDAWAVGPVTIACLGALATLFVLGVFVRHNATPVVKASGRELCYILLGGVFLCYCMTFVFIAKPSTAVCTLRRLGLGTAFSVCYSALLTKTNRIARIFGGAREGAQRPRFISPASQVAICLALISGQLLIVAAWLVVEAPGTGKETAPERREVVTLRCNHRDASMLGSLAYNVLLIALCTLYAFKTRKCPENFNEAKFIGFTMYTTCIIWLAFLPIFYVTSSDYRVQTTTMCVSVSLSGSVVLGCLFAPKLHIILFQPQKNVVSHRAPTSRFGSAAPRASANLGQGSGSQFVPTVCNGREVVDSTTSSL
experimentSummary: cell-based or functional assay
measureName: PAM effect G protein coupling, pEC50 (pEC50)
Respond numerically; units are pEC50 and should not be typed.

Name the reported PAM effect G protein coupling, pEC50 value associated with the binder biparatopic IGF1202 (construct IGF1168-linker sequence L1-IGF1159) (bispecific antibody) QVQLVQSGGGLVQAGGSLRLSCAASVRFFSINTMGWYRQAPGKQRELVADITSSGSTNYADSGKGRFTISRDNAKNTVYLQMNRLKPEDTAVYYCHADYKYTTHNTAWGQGTQVTVSSEPKIPQPQPKPQPQPQPQPQPKPQPKPEPQVQLVQSGGGLVQAGGSLRLSCAASGRTFSSFAMAWFRQAPGKEREFVAAISWSGSTGHADSVKGRFTITRDNAKNTVFLQMNSLKPEDTAVYYCALGKGSSYYYSPSGYDYWGQGTQVTVSSLEHHHHHH
8.81
